- TESTED TARGET: Wnt-responsive promoter (TCF/LEF)
- EXPERIMENT NOTES: Wnt-dependent luciferase reporter assay
Where a SMILES comes first, the peptide text is derived from it.

| COMPOUND | EC50 |
| --- | --- |
| CC[C@H](C)[C@H](NC(=O)[C@H](CC(C)C)NC(=O)[C@@H](NC(=O)[C@H](Cc1c[nH]c2ccccc12)NC(=O)[C@@H](N)CCSC)[C@@H](C)CC)C(=O)N[C@@H](CO)C(=O)N[C@@H](CO)C(=O)N[C@@H](Cc1c[nH]c2ccccc12)C(=O)NCC(=O)O [compound 129] (H-MWILISSWG-OH) | < 7.5 µM |
| CC[C@H](C)[C@H](NC(=O)[C@H](Cc1c[nH]c2ccccc12)NC(=O)[C@@H](N)CCSC)C(=O)NC(C)(CC(C)C)C(=O)N[C@H](C(=O)N[C@@H](CS)C(=O)N[C@@H](Cc1ccccc1)C(=O)N[C@@H](Cc1c[nH]c2ccccc12)C(=O)NCC(=O)O)[C@@H](C)CC (stereo partly drawn) [compound 130] (HELM PEPTIDE1{M.W.I.[CC(C)CC(C)(N[*:1])C(=O)[*:2]].I.C.F.W.G}$$$$V2.0) | 22.5 to 30 µM |
| CC[C@H](C)[C@@H]1NC(=O)[C@H](CC(C)C)NC(=O)[C@H](Cc2ccccc2)NC(=O)[C@H](Cc2c[nH]c3ccccc23)NC(=O)[C@H](CCSC)NC(=O)[C@@H](N)CCCCNC(=O)CNC(=O)[C@H](Cc2c[nH]c3ccccc23)NC(=O)[C@H](Cc2ccccc2)NC(=O)[C@H](CO)NC1=O [compound 26] (HELM PEPTIDE1{K.M.W.F.L.I.S.F.W.G}$PEPTIDE1,PEPTIDE1,1:R3-10:R2$$$V2.0; bridges inferred) | 7.5 to 15 µM |

----------
- STATED CONDITIONS: % Viability non-Wnt responsive cells
Where a SMILES comes first, the peptide text is derived from it.

| COMPOUND | viability, % |
| --- | --- |
| CC[C@H](C)[C@H](NC(=O)[C@H](CC(C)C)NC(=O)[C@H](Cc1ccccc1)NC(=O)[C@H](Cc1c[nH]c2ccccc12)NC(=O)[C@H](Cc1c[nH]cn1)NC(=O)[C@H](CCCNC(=N)N)NC(=O)[C@H](CO)NC(=O)[C@@H](N)Cc1c[nH]c2ccccc12)C(=O)N[C@@H](CO)C(=O)N[C@@H](Cc1ccccc1)C(=O)N[C@@H](Cc1c[nH]c2ccccc12)C(N)=O [compound 91] (H-WSRHWFLISFW-NH2) | 84.6 |
| CCCCCC[C@H](N)C(=O)N[C@@H](Cc1c[nH]c2ccccc12)C(=O)N[C@@H](Cc1ccccc1)C(=O)N[C@@H](CC(C)C)C(=O)N[C@H](C(=O)N[C@@H](CS)C(=O)N[C@@H](Cc1ccccc1)C(=O)N[C@@H](Cc1c[nH]c2ccccc12)C(=O)NCC(=O)O)[C@@H](C)CC [compound 139] (HELM PEPTIDE1{[CCCCCC[C@H](N)C(=O)[*:2]].W.F.L.I.C.F.W.G}$$$$V2.0) | 99.5 |
| CC[C@H](C)[C@H](NC(=O)[C@H](CC(C)C)NC(=O)[C@H](Cc1ccccc1)NC(=O)[C@H](Cc1c[nH]c2ccccc12)NC(=O)[C@H](CCSC)NC(=O)[C@H](CCCNC(=N)N)NC(=O)[C@H](CO)NC(=O)[C@@H](N)Cc1ccc(O)cc1)C(=O)N[C@@H](CO)C(=O)N[C@@H](Cc1ccccc1)C(=O)N[C@@H](Cc1c[nH]c2ccccc12)C(N)=O [compound 82] (H-YSRMWFLISFW-NH2) | 84 |
